- Assay Explanation: G protein-coupled receptor (GPCR) small molecule agonists, calcium flux assay: HEK293 wild type cell line counter screen (AID 1920065)
- Test Conditions: HEK293 WT calcium flux, fluorescence, agonist mode; series mostly up to 57.6 µM
Calls of active or inactive are those of the source. The call rests on the fitted dose curve.
Readout Kind: outcome

>  <Molecule>
CCCCCCCCCCCCO

>  <Endpoint Value>
inactive

$$$$
>  <Molecule>
CC1COC(=O)O1 (stereo unspecified)

>  <Endpoint Value>
inactive

$$$$
>  <Molecule>
Nc1ccc(S(=O)(=O)c2ccc(N)cc2)cc1

>  <Endpoint Value>
inactive

$$$$
>  <Molecule>
CC(=O)CC(c1ccccc1)c1c(O)c2ccccc2oc1=O (stereo unspecified)

>  <Endpoint Value>
inactive

$$$$
>  <Molecule>
CC(=O)OCc1ccc2c(c1)OCO2

>  <Endpoint Value>
inactive

$$$$
>  <Molecule>
CCO[Si](CCCN)(OCC)OCC

>  <Endpoint Value>
inactive

$$$$
>  <Molecule>
Cc1ccc(C(C)C)c(O)c1

>  <Endpoint Value>
inactive

$$$$
>  <Molecule>
ClC/C=C/CCl

>  <Endpoint Value>
inactive

$$$$
>  <Molecule>
CCCCNC(N)=O

>  <Endpoint Value>
inactive

$$$$
>  <Molecule>
O=C1O[C@H]([C@H](O)CO)C(O)=C1O

>  <Endpoint Value>
inactive

$$$$
>  <Molecule>
C=CC(=O)OCCCCCCCC(C)C

>  <Endpoint Value>
inactive

$$$$
>  <Molecule>
Cc1cc(=O)oc2cc(O)ccc12

>  <Endpoint Value>
inactive

$$$$
>  <Molecule>
Cc1ccc2c(c1)C(=O)OC2=O

>  <Endpoint Value>
inactive

$$$$
>  <Molecule>
CS(=O)(=O)OCCCCOS(C)(=O)=O

>  <Endpoint Value>
inactive

$$$$
>  <Molecule>
Nc1ccc(S(N)(=O)=O)cc1

>  <Endpoint Value>
inactive

$$$$
>  <Molecule>
Nc1nc2ccccc2[nH]1

>  <Endpoint Value>
inactive

$$$$

###

- Assay Explanation: Nuclear factor erythroid 2-related factor 2/antioxidant responsive element (Nrf2/ARE) small molecule agonists: qHTS cell viability counter screen in human keratinocytes (AID 1919968); further: nearly all actives have a fitted effect of over 55% in size
- Test Conditions: KeratinoSens HaCaT ARE cells viability, CellTiter-Fluor, 24 h; series mostly up to 92.4 µM
Inconclusive results are not listed. Activity calls are given as the source filed them. Calls follow the shape of the dose curve; as a rule, active = well fitted cell-killing curve with a large enough effect in the repeat runs; inconclusive = weak or mixed curves, or effect the other way; inactive = flat fitted curve, though single readings scatter.
Readout Kind: outcome

>  <Compound>
COc1ccc(C)cc1N

>  <Endpoint Value>
inactive

$$$$
>  <Compound>
Cc1cccc(C)c1

>  <Endpoint Value>
inactive

$$$$
>  <Compound>
COCc1c(C(C)C)nc(C(C)C)c(/C=C/[C@@H](O)C[C@@H](O)CC(=O)O)c1-c1ccc(F)cc1

>  <Endpoint Value>
inactive

$$$$
>  <Compound>
Oc1ccccc1

>  <Endpoint Value>
inactive

$$$$
>  <Compound>
CC(=O)Nc1ccc2c(c1)Cc1cc(NC(C)=O)ccc1-2

>  <Endpoint Value>
inactive

$$$$
>  <Compound>
CC(O)CN(CCN(CC(C)O)CC(C)O)CC(C)O (configuration not stated)

>  <Endpoint Value>
inactive

$$$$
>  <Compound>
O=Cc1ccc(CO)o1

>  <Endpoint Value>
inactive

$$$$

###

- Subject Of Test: Gonadotropin-releasing hormone receptor (Homo sapiens) (UniProt P30968)
- Sequence (P30968 whole entry, looked up): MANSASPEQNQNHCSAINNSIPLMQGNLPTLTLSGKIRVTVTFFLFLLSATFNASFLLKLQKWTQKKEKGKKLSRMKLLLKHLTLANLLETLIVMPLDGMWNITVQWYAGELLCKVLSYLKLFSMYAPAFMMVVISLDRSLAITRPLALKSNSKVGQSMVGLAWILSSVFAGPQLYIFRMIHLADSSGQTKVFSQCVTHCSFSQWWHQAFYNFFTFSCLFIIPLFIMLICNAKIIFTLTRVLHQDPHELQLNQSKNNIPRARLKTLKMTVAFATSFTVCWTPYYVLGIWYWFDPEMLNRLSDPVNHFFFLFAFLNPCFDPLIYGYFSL
- Assay Explanation: Human gonadotropin-releasing hormone receptor (GnRHR) small molecule agonists, calcium flux assay in GnRHR-HEK293 cells (AID 1920063); further: nearly all actives have a fitted effect of over 35% in size
- Test Conditions: calcium flux fluorescence, agonist mode; series mostly up to 57.6 µM
Active and inactive are the calls of the source. Calls come from the whole dose curve.
Outcomes: active, inactive

>  <Molecule>
CCCOC(=O)c1cc(O)c(O)c(O)c1

>  <Classification>
inactive

$$$$
>  <Molecule>
CC(C)OC(=O)COc1ccc(Cl)cc1Cl

>  <Classification>
inactive

$$$$
>  <Molecule>
CCC(=O)/C=C/C1C(C)=CCCC1(C)C (configuration not stated)

>  <Classification>
inactive

$$$$
>  <Molecule>
CC(=O)Nc1ccc(C(=O)O)cc1

>  <Classification>
inactive

$$$$
>  <Molecule>
O=C(O)c1ccc2c(c1)C(=O)OC2=O

>  <Classification>
inactive

$$$$
>  <Molecule>
CC(COc1ccccc1)N(CCCl)Cc1ccccc1 (configuration not stated)

>  <Classification>
inactive

$$$$
>  <Molecule>
NC(=O)c1ccccc1O

>  <Classification>
inactive

$$$$
>  <Molecule>
COC(=O)CCCC(=O)OC

>  <Classification>
inactive

$$$$
>  <Molecule>
O=C1O[C@H]([C@@H](O)CO)C(O)=C1O

>  <Classification>
inactive

$$$$
>  <Molecule>
OCCCc1ccccc1

>  <Classification>
inactive

$$$$
>  <Molecule>
CNC(=S)N(C)C

>  <Classification>
inactive

$$$$
>  <Molecule>
CN(C)CCOC(=O)COc1ccc(Cl)cc1

>  <Classification>
inactive

$$$$
>  <Molecule>
CC(=O)CC(C)(C)O

>  <Classification>
inactive

$$$$
>  <Molecule>
CC1=CC[C@H]2C[C@@H]1C2(C)C

>  <Classification>
inactive

$$$$
>  <Molecule>
c1ccc2ccccc2c1

>  <Classification>
inactive

$$$$
>  <Molecule>
NC(=O)c1ncn([C@@H]2O[C@H](CO)[C@@H](O)[C@H]2O)n1

>  <Classification>
inactive

$$$$
>  <Molecule>
CC(O)C(=O)O (configuration not stated)

>  <Classification>
inactive

$$$$
>  <Molecule>
C=C1C2CCC(C2)C1(C)C (configuration not stated)

>  <Classification>
inactive

$$$$
>  <Molecule>
Clc1ccc(Cl)c(Cl)c1Cl

>  <Classification>
inactive

$$$$
>  <Molecule>
Nc1cc(Cl)c(N)c(Cl)c1

>  <Classification>
inactive

$$$$
>  <Molecule>
CC(=O)c1ccccc1

>  <Classification>
inactive

$$$$
>  <Molecule>
CCc1cccc2c3c([nH]c12)C(CC)(CC(=O)O)OCC3 (configuration not stated)

>  <Classification>
inactive

$$$$
>  <Molecule>
COC(=O)c1cccnc1

>  <Classification>
inactive

$$$$
>  <Molecule>
CCCCNC(=O)NS(=O)(=O)c1ccc(C)cc1

>  <Classification>
inactive

$$$$
>  <Molecule>
Cc1cccc2ccccc12

>  <Classification>
inactive

$$$$
>  <Molecule>
O=C(O)CCCCC(=O)O

>  <Classification>
inactive

$$$$
>  <Molecule>
O=C(O)CN(CC(=O)O)CC(=O)O

>  <Classification>
inactive

$$$$
>  <Molecule>
Cc1cc(C)nc(NS(=O)(=O)c2ccc(N)cc2)n1

>  <Classification>
inactive

$$$$
>  <Molecule>
CCCCCCCCCCCCS

>  <Classification>
inactive

$$$$
>  <Molecule>
CCNC(=S)NCC

>  <Classification>
inactive

$$$$
>  <Molecule>
CCc1nc(N)nc(N)c1-c1ccc(Cl)cc1

>  <Classification>
active

$$$$
>  <Molecule>
CC(C)(C)[C@@H](O)[C@@H](Cc1ccc(Cl)cc1)n1cncn1

>  <Classification>
inactive

$$$$
